measurement-name: melting point (°C)

C=C(C)C(=O)OCC(=O)OC [Methoxycarbonylmethylmethacrylate] : 60
C=C(C)C(=O)Sc1nc(-c2ccccc2)ns1 : 110
C=C(C)C(=O)Oc1c(Br)cc(Br)cc1Br [2,4,6-Tribromophenylmethacrylate] : 140
C=C(C)C(=O)OCC(=O)OC(C)(C)C [t-Butoxycarbonylmethylmethacrylate] : 65
C=C(C)C(=O)Oc1ccc(OC)cc1 [4-Methoxyphenylmethacrylate] : 40
C=C(C)C(=O)Oc1ccc(Br)cc1C=O : 52
